Origin of measurements: patent US12528801B2

Reported pEC50 values for a set of compounds
# tgt: hTRPM8 (Homo sapiens, UniProt Q7Z2W7)
# Construct: expressed in transfected cells
# Sequence (Q7Z2W7 whole entry): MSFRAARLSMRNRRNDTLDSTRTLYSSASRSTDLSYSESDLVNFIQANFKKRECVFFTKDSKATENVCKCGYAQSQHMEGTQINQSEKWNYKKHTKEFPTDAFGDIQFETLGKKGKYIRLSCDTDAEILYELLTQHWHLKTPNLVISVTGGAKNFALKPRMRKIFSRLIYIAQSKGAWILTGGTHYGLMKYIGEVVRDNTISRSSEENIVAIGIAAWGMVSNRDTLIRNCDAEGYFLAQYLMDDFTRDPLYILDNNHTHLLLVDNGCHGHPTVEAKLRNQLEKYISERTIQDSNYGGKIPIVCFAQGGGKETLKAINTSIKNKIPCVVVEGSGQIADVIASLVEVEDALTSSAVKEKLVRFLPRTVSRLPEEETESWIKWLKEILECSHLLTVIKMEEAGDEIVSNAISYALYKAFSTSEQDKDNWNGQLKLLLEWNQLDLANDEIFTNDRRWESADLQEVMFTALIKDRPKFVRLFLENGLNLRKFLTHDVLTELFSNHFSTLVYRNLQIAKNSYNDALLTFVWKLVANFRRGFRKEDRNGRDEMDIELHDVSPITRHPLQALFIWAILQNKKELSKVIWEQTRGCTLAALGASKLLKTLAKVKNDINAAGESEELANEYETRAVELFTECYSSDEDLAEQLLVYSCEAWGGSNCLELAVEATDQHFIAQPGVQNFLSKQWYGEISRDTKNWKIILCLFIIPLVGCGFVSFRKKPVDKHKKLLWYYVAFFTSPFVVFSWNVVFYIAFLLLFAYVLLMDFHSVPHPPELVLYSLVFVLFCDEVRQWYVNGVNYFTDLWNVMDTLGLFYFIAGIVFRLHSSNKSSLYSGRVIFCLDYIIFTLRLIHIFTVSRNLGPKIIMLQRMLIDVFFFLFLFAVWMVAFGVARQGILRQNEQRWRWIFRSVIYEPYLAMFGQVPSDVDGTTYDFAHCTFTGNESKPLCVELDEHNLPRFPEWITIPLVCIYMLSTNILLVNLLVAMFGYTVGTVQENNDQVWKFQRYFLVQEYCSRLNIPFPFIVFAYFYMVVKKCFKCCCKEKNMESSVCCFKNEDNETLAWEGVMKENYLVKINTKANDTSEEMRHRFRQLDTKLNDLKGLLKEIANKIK
# test-description: Assay on TRPM8 modulators: calcium imaging (Fluo-4, Flexstation) in HEK293 cell line stably expressing hTRPM8
# Format: cell-based
# reported-conditions: HEK293 cells stably expressing hTRPM8; calcium influx, Fluo-4, Flexstation 3; sigmoidal dose-response fit
pEC50: −log10 of the molar value.

## Task Entry CSC(C)C(=O)N1CCCCCC1c1ncc(-c2ccc(C)cc2)[nH]1 (stereo not drawn) [Compound 129] : reported pEC50 = ?
## Result > 7.30

## Task Form field: reported pEC50 of C=CC(C)C(=O)N1CCCCC1c1ncc(-c2ccc(F)c(F)c2)[nH]1 (stereo not drawn) [Compound 61]
## Result > 7.30

## Task // returns reported pEC50 for input CSC(C)C(=O)N1CCCCC1c1ncc(-c2ccc(N)cc2)[nH]1 (stereo not drawn) [Compound 75]
## Result > 7.30

## Task Find the recorded pEC50 belonging to CSC(C)C(=O)N1CCCCC1c1nc(-c2ccc3c(c2)OC(F)(F)O3)c[nH]1 (stereo not drawn) [Compound 17] and report it.
## Result > 7.30

## Task Which measured pEC50 value corresponds to CSC(C)C(=O)N1CCCCC1c1ncc(-c2cccc([N+](=O)[O-])c2)[nH]1 (stereo not drawn) [Compound 190] ?
## Result > 7.30

## Task Any idea what pEC50 was measured for CSC(C)C(=O)N1CCCCC1c1nc(-c2cc(F)cc(F)c2)c[nH]1 (stereo not drawn) [Compound 26] ?
## Result > 7.30

## Task Reported pEC50 for Cc1ccc(-c2cnc(C3CCCCN3S(=O)(=O)C(C)C)[nH]2)cc1 (stereo not drawn) [Compound 203] : what is it?
## Result 6.00 to 6.52

## Task What measured pEC50 goes with COc1ccc(-c2cnc(C3CCCCN3C(=O)C(C)SC)[nH]2)cc1 (stereo not drawn) [Compound 81] ?
## Result > 7.30

## Task I'd like to know its pEC50. The compound in question is N#C[C@@H]1C[C@@H]1C(=O)N1CCCCC1c1nc(-c2ccccc2)c[nH]1 (relative stereo) [Compound 90]
## Result 4.46 to 6.00

## Task Field request: pEC50 | item: CSC(C)C(=O)N1CCCCC1c1nc(-c2cccnc2)c[nH]1 (stereo not drawn) [Compound 113]
## Result 6.00 to 6.52

## Task Form field: reported pEC50 of CSC(C)C(=O)N1CCCCC1c1ncc(-c2ccccc2)[nH]1 (stereo not drawn) [Compound 135]
## Result > 7.30

## Task What does the record list as pEC50 for C/C=C(\C)C(=O)N1CCCCC1c1ncc(-c2ccc(C)cc2)[nH]1 (stereo not drawn) [Compound 9] ?
## Result > 7.30

## Task Endpoint output: pEC50 of CCC(C)C(=O)N1CCCCC1c1ncc(-c2cccc(C)c2)[nH]1 (stereo not drawn) [Compound 201] . Value?
## Result 6.52 to 7.30

## Task What pEC50 value was documented for this compound, CSC(C)C(=O)N1CCCCC1c1nc(-c2ccc(C)cc2)co1 (stereo not drawn) [Compound 207] ?
## Result > 7.30

## Task Item under review: CSC(C)C(=O)N1CCCCC1c1nc(-c2ccc(C3CCC3)cc2)c[nH]1 (stereo not drawn) [Compound 36] . Reported pEC50?
## Result > 7.30

## Task GET /values?readout=pEC50&item= C=CC(C)C(=O)N1CCCCC1c1ncc(-c2ccc(C)cc2)[nH]1 (stereo not drawn) [Compound 163]
## Result > 7.30

## Task Reported pEC50, compound COc1cccc(-c2cnc(C3CCCCN3C(=O)C(C)SC)[nH]2)c1 (stereo not drawn) [Compound 68] : ____
## Result 6.52 to 7.30

## Task For the compound shown here, CSC(C)C(=O)N1CCCCC1c1nnc(-c2ccc(F)cc2)[nH]1 (stereo not drawn) [Compound 79] , give the reported pEC50.
## Result > 7.30
